Record set of Cytotoxicity(%) ×20 Pep(+) for target or system T2 cells (HLA-A*0201).
Ends that are not written are not given here.

- polymerSequence: "YLLGPSRSAV [RNF43-357, YLLGPSRSAV]"
  Cytotoxicity(%) ×20 Pep(+): "18.2%"
- polymerSequence: "WLLMATLQA [RNF43-15, WLLMATLQA]"
  Cytotoxicity(%) ×20 Pep(+): "−0.2%"
- polymerSequence: "KLMEFVYKN [RNF43-171, KLMEFVYKN]"
  Cytotoxicity(%) ×20 Pep(+): "2.6%"
- polymerSequence: "WLHQHRTCPL [RNF43-302, WLHQHRTCPL]"
  Cytotoxicity(%) ×20 Pep(+): "7.4%"
- polymerSequence: "LLGPSRSAV [RNF43-358, LLGPSRSAV]"
  Cytotoxicity(%) ×20 Pep(+): "−0.4%"
- polymerSequence: "LMQSHPLYL [RNF43-82, LMQSHPLYL]"
  Cytotoxicity(%) ×20 Pep(+): "1.7%"

====

Ends that are not written are not given here.
Values of Cytotoxicity(%) ×20 Pep(−) reported for T2 cells (HLA-A*0201) appear below.
resultType: Cytotoxicity(%) ×20 Pep(−)

- polymerSequence: "KLNLTLEGV [RNF43-60, KLNLTLEGV]"
  reportedMeasurement: "0.2%"
- polymerSequence: "YLLGPSRSAV [RNF43-357, YLLGPSRSAV]"
  reportedMeasurement: "15.4%"
- polymerSequence: "WLLMATLQA [RNF43-15, WLLMATLQA]"
  reportedMeasurement: "0.0%"
- polymerSequence: "KLMEFVYKN [RNF43-171, KLMEFVYKN]"
  reportedMeasurement: "0.0%"

====

Tested on: TISI cells (HLA-A24/24)
Ends that are not written are not given here.
The entries below are paired with their reported Cytotoxicity of CTL lines (9mer) ×20 Pep(+).
resultType: Cytotoxicity of CTL lines (9mer) ×20 Pep(+)

- polymerSequence: "SYQEPGRRL [RNF43-331, SYQEPGRRL]"
  reportedMeasurement: "2%"
- polymerSequence: "NSQPVWLCL [RNF43-721, NSQPVWLCL]"
  reportedMeasurement: "68%"
- polymerSequence: "GFGRTGLVL [RNF43-24, GFGRTGLVL]"
  reportedMeasurement: "8%"
- polymerSequence: "RAPRPCLSL [RNF43-114, RAPRPCLSL]"
  reportedMeasurement: "23%"
- polymerSequence: "RPPRPGPFL [RNF43-368, RPPRPGPFL]"
  reportedMeasurement: "1%"
- polymerSequence: "LFNLQKSSL [RNF43-639, LFNLQKSSL]"
  reportedMeasurement: "42%"
